assay: Electronic tongue analysis (Taste-Sensing System SA 402B); parameters: unit not given here; conditions: sensor CT0, peptide 1 mg/mL, reference solution 30 mM KCl + 0.3 mM tartaric acid as baseline, detection threshold -6, room temperature, four replicates, first measurement excluded
Ends that are not written are not given here.
Salty values, listed per item
metric: Salty

| substance | numeric.value |
| --- | --- |
| VPDELN [TaPep23] | 6.69 |
| DQKVLA [TaPep3] | 13.20 |
| VAEDLL [TaPep8] | 7.96 |
| LQDVVE [TaPep24] | 4.83 |
| EFPEQN [TaPep17] | -0.53 |
| EPDDPDD [TaPep27] | 8.93 |
| YAGNAP [TaPep10] | 14.02 |
| KNDESVD [TaPep48] | 9.10 |
| STGTIR [TaPep51] | 8.48 |
| SNDPVA [TaPep71] | 9.59 |
| AKDEKEL [TaPep1] | 13.72 |
| PTELESD [TaPep41] | 2.54 |
| YKYHES [TaPep13] | 15.30 |
| LQPDAGK [TaPep6] | 12.20 |

====

Ends that are not written are not given here.
Assay system human pancreatic ductal epithelial cells (HPNE); read-out recorded as Cell viability, HPNE, Data1.

| substance | Cell viability, HPNE, Data1 |
| --- | --- |
| EQGEQN [TaPep15] | 84.06 |
| HGGDDLG [TaPep28] | 100.63 |
| EPKVLV [TaPep54] | 115.91 |
| EDGPHGD [TaPep45] | 107.42 |
| FPEQQD [TaPep16] | 100.13 |
| LWGPVT [TaPep72] | 115.31 |
| SLEYLP [TaPep35] | 105.12 |
| TAEQVA [TaPep33] | 118.30 |
| VARLEA [TaPep9] | 117.30 |
| AEDNSL [TaPep43] | 117.40 |
| DQEPVE [TaPep44] | 112.51 |
| AQDDLP [TaPep20] | 113.51 |
| SVLEFS [TaPep52] | 112.31 |
| AQSSLS [TaPep40] | 100.53 |
| KNDESVD [TaPep48] | 87.85 |
| IAVPHEP [TaPep47] | 107.02 |
| EFPEQN [TaPep17] | 86.66 |
| NGDDEEG [TaPep7] | 92.35 |
| NNDDEES [TaPep50] | 106.02 |
| TIDDELR [TaPep26] | 84.76 |
| YQAENKH [TaPep14] | 93.34 |
| EEVPITD [TaPep46] | 107.62 |
| PTELESD [TaPep41] | 86.16 |
| YAGNAP [TaPep10] | 97.18 |
| VAEDLL [TaPep8] | 109.62 |
| PPLENT [TaPep39] | 95.44 |
| YDGTPLN [TaPep11] | 98.34 |
| EQPLQA [TaPep21] | 92.25 |
| AKDEKEL [TaPep1] | 92.35 |
| HIDELDE [TaPep22] | 103.83 |
| DQKVLA [TaPep3] | 97.04 |
| TDPELV [TaPep60] | 114.61 |
| LGDDLVK [TaPep19] | 102.93 |
| VPDELN [TaPep23] | 105.82 |
| SLEYEFK [TaPep38] | 86.36 |
| SNDPVA [TaPep71] | 86.86 |
| LQPDAGK [TaPep6] | 95.64 |
| STGTIR [TaPep51] | 115.31 |
| DAELDK [TaPep34] | 99.83 |
| FEGDQDA [TaPep18] | 116.21 |
| FTEELE [TaPep32] | 117.80 |
| EVGMQE [TaPep56] | 109.42 |
| TQEVVN [TaPep25] | 92.95 |
| KGYEAV [TaPep5] | 117.83 |
| DFKEELPK [TaPep42] | 109.92 |
| LQPSLEH [TaPep59] | 105.62 |
| LQDVVE [TaPep24] | 94.37 |
| APEELDA [TaPep36] | 114.11 |
| KADGNR [TaPep4] | 95.76 |
